# System: LOX IMVI melanoma
# protocol text: NCI tumour cell line growth inhibition, 48 h
measurement kind: TGI (µM)
Provide only the numeric value, understood in µM.

Worked examples, 4 compounds total:
| compound | TGI (µM) |
| --- | --- |
| N#CC(C(=O)/C(=N/NC(=O)c1ccccc1O)C(C#N)c1ccc(Cl)cc1)c1ccc(Cl)cc1 (stereo not given) | 27.3 |
| COc1cc(C2c3cc4c(cc3OC(N3CCCC3)C2C)OCO4)cc(OC)c1OC (stereo not given) | 25.9 |
| COc1ccc2c(c1)C(O)(C(F)(F)F)c1cc(C(=O)C(F)(F)F)c3ccccc3c1N2 (stereo not given) | 16.5 |
| CCCC[C@H](NC(=O)[C@H]1CCCN1C)C(=O)N(C)[C@H](C[C@@H](OC(C)=O)c1nc(C(=O)N[C@@H](Cc2ccccc2)C[C@H](C)C(=O)OCC)cs1)C(C)C | 9.99 |

# input What does the record list as TGI for CC/C=C\C=C/C(=O)N/C=C/CC1Cc2cccc(O)c2C(=O)O1 (stereo not given) ?
# output 26.5

# input What value of measured TGI is listed for C[C@@H](C(=O)Nc1ccc(Cl)cc1)C1CCC(c2ccnc3ccc(F)cc23)CC1 (stereo not given in full) ?
# output 21.3

###

Measured TGI of individual entries
# Tested on: NCI/ADR-RES ovarian
# protocol text: NCI tumour cell line growth inhibition, 48 h

Worked set:
| compound | result |
| --- | --- |
| COc1cc(C2c3cc4c(cc3OC(NN=C(C)C)C2C)OCO4)cc(OC)c1O (configuration not stated) | > 100 µM |
| O=C1NCCCc2nonc21 | > 100 µM |
| CC(=O)N/N=C1/NN(C(C)=O)C2(S1)C(=O)Nc1ccc(Br)cc12 (configuration not stated) | > 100 µM |
| C=C(Cl)/C(=C\Cl)CCC(Br)C(C)C (configuration not stated) | > 100 µM |

# input Form field: reported TGI of Cc1[c-]onc1C.Cc1[c-]onc1C.[Ag].[Ag].[NH-]S(=O)(=O)c1ccc(N=Nc2cc(N=Nc3ccc(S([NH-])(=O)=O)cc3)c3c(NC(=O)C(Cl)Cl)cccc3c2OC(=O)C(Cl)Cl)cc1
# output > 50 µM

# input Which measured TGI value corresponds to O=C(c1ccc(F)cc1)c1cccc(C(=O)c2ccc(F)cc2)n1 ?
# output > 100 µM

# input Form field: reported TGI of C=C1C(=O)O[C@H]2[C@H]1CC/C(COC(=O)NCc1ccccc1OC)=C\CC[C@@]1(C)O[C@@H]21
# output 6.12 µM

# input Look up TGI: CCCCn1c2c(n(CCCC)c1=S)-c1c(n(CCCC)c(=S)n1CCCC)S[Se][Se]S2
# output 53 µM

# input For the compound CC/C=C\C=C/C(=O)N/C=C/CC1Cc2cccc(O)c2C(=O)O1 (configuration not stated) , what TGI is on record?
# output > 100 µM

# input Reported TGI, compound C=CCc1c2c(c(OC)c3ccoc13)C(=O)/C(=C/c1ccccc1OC)O2 : ____
# output 10.8 µM

# input Data request, read-out TGI, for CC(C)=CCc1c2c(c3occ(-c4ccc(O)c(O)c4)c(=O)c3c1O)C=CC(C)(C)O2
# output 5.87 µM

# input Look at this compound and give its reported TGI. O=[N+]([O-])C(=C(N1CCCCC1)N1CCCCC1)/C(Cl)=C(\Cl)Br
# output 91.8 µM

# input Need TGI, item CC(C)(C)C#CC1=C(Br)C(=O)OC1
# output 2.8 µM

# input Requested field: TGI. Item: O=C1C(c2c(O)[nH]c3ccc(S(=O)(=O)O)cc23)=Nc2ccccc21
# output > 100 µM

# input Could you tell me which TGI is on file for O=C(CC(=O)CC(O)(C(F)(F)F)C(F)(F)F)CC(O)(C(F)(F)F)C(F)(F)F ?
# output > 10 µM

# input What value of measured TGI is listed for C/C(=C\c1ccccc1)C(=O)CCN1CCOCC1 ?
# output 50.5 µM

# input For the compound C[n+]1c(-c2ccccc2)cc2/c(=C\c3ccc([N+](=O)[O-])cc3)c3ccccc3n21 , what TGI is on record?
# output > 100 µM

# input Give the measured TGI of COC(=O)c1c(C)cccc1/C=C1/Cc2c(C)cccc2C1=O .
# output > 100 µM

# input Any idea what its TGI is? The compound is CCN1C(=O)N(CC)C2C1NN=c1s/c(=C\c3cccnc3)c(=O)n12 (configuration not stated)
# output > 100 µM

# input Using the record for Cc1cn2c(/C=C3/C(=O)Nc4cccc(Cl)c43)c(Cl)nc2s1 , report its TGI.
# output > 100 µM

# input What value of measured TGI is listed for CCOC1CC(=O)c2c(Br)sc(Br)c21 (configuration not stated) ?
# output > 100 µM

# input Quick one: TGI of CN(C)c1ccc(-c2c(C#N)c(S)n(NS(=O)(=O)c3ccccc3)c(=O)c2C#N)cc1 ?
# output 49.5 µM

###

# Test system: MDA-MB-435
# protocol text: NCI tumour cell line growth inhibition, 48 h
measurement kind: TGI (µM)
Unit µM implied. Number only.

| compound smiles | subject of test | display unit | TGI |
| --- | --- | --- | --- |
| COc1ccc2c(CCCC(c3ccccc3)c3ccccc3)c3[n+](cc2c1OC)CCc1cc2c(cc1-3)OCO2 | MDA-MB-435 | µM | 1.15 |
| COc1ccc2nc3cc([N+](=O)[O-])ccc3c(NCCCCCN(C)C)c2c1 | MDA-MB-435 | µM | 0.972 |

# input What does the record list as TGI for O=CNc1c(Cl)cc2c(c1Cl)Cc1cc([N+](=O)[O-])ccc1-2 ?
# output 3.63

# input What does the record list as TGI for CCCCOc1ccc(NC(N)=Nc2ccc(Cl)cc2)cc1 ?
# output 23.4

###

// reported TGI per item
# System: K-562 leukemia
# protocol text: NCI tumour cell line growth inhibition, 48 h

// solved cases for TGI follow
| molecule | subject of test | result |
| --- | --- | --- |
| CCCN=Cc1cc(Cc2ccc(O)c(C=NCCC)c2)ccc1O | K-562 leukemia | 4.71 µM |
| COC(=O)[C@H](Cc1cn(C)cn1)NC(=O)[C@H](Cc1c[nH]c2ccccc12)NC(=O)Nc1cc(C(F)(F)F)cc(C(F)(F)F)c1 | K-562 leukemia | > 10 µM |
| COC(=O)/C=C/C=C(c1ccccc1)c1ccccc1 | K-562 leukemia | > 100 µM |
| O=c1c2ncn(C3CC(O)C(CO)O3)c2nnn1Cc1ccccc1[N+](=O)[O-] (centres undefined) | K-562 leukemia | > 100 µM |
| CNC(=O)n1ccc2cc(Oc3ccnc(NC(=O)c4ccc(C5CCN(CCO)CC5)cc4)c3)c(OCCOC)cc21 | K-562 leukemia | 10.6 µM |
| CCC12C[N+]3([O-])CCc4c([nH]c5ccccc45)C(C(=O)OC)(c4cc5c(cc4OC)N(C)C4C(O)(C(=O)OC)C(OC(C)=O)C6(CC)C=CCN7CCC54C76)CC(C3)C1O2 (centres undefined) | K-562 leukemia | 6.28 µM |
| CCCCCCCCCCCCOC(=S)NCCCC | K-562 leukemia | 41.3 µM |
| CCN(CC)CCNc1ccc2nnn3c4ccc(OC)cc4c(=O)c1c23 | K-562 leukemia | 20.1 µM |

# input Please give the measured TGI for this molecule: N#Cc1nc(-c2cc([N+](=O)[O-])cc([N+](=O)[O-])c2)oc1N
# output > 10 µM

###

# Tested on: SF-539 CNS
# protocol text: NCI tumour cell line growth inhibition, 48 h
measurement kind: TGI

The cases that follow already have their TGI on record.
| compound smiles | TGI |
| --- | --- |
| CCCCCCCCCc1cc(=O)c2ccc(OCc3ccccc3)cc2o1 | > 100 µM |
| N#Cc1cnc2cc(OC[C@H](O)CO)c(NC(=O)CC3CSSC3)cc2c1Nc1ccc(OCc2cccc(F)c2)c(Cl)c1 | 1.55 µM |
| Cc1ccc(S(=O)(=O)N2CCSCCSCCSCCSCC2)cc1 | 43.7 µM |

# input What reported TGI corresponds to N#C/C(=C1\OC(=O)C(c2ccc(Br)cc2)=C1O)c1ccc(Br)cc1 on SF-539 CNS?
# output 30 µM

# input # get_value(readout= TGI, system= SF-539 CNS) for COc1cccc(/C=C/C(=O)c2cccc(Nc3nc(Nc4ccccc4)nc(Nc4ccccc4)n3)c2)c1
# output 34.4 µM

###

# Test system: COLO 205 colon
# protocol text: NCI tumour cell line growth inhibition, 48 h
measurement kind: GI50

Use these answered entries as a reference point.
| compound | subject of test | GI50 |
| --- | --- | --- |
| O=C1OC(=O)C(c2c[nH]c3ccccc23)=C1c1c[nH]c2ccccc12 | COLO 205 colon | > 25 µM |
| Cc1ccc2c(ccc3c[n+]4c5ccccc5ccc4n32)c1 | COLO 205 colon | 0.485 µM |
| CN1CCN(CCc2cccc(C(=O)c3cnn(-c4ccc(F)cc4)c3N)c2)CC1 | COLO 205 colon | > 25 µM |
| C[C@H](Nc1ncnc2nc[nH]c12)c1cc2cccc(Cl)c2c(=O)n1-c1ccccc1 | COLO 205 colon | 19.7 µM |
| COc1c(CCC[P+](c2ccccc2)(c2ccccc2)c2ccccc2)cc2c(c1OC)OCO2 | COLO 205 colon | 1.21 µM |
| COC1(C(=O)N[C@@H](C)c2ccc(-n3cc(F)cn3)nc2)CCC(c2nc(C)cc(Nc3cc(C)[nH]n3)n2)CC1 (stereo partly drawn) | COLO 205 colon | 3.83 µM |

# input Look up GI50 for this compound: COc1ccc(N2C(C)=C(C#N)C34C(=O)N(c5ccccc5)C(=O)C3=C(O)C=CC24O)cc1 (stereo not drawn)
# output 10.8 µM

# input // GI50 lookup, key: CC/C=C\C=C/C(=O)N/C=C/CC1Cc2cccc(O)c2C(=O)O1 (stereo not drawn)
# output 20.3 µM
